target_desc: human RXFP2 (Homo sapiens, UniProt Q8WXD0)
Sequence (Q8WXD0 whole entry): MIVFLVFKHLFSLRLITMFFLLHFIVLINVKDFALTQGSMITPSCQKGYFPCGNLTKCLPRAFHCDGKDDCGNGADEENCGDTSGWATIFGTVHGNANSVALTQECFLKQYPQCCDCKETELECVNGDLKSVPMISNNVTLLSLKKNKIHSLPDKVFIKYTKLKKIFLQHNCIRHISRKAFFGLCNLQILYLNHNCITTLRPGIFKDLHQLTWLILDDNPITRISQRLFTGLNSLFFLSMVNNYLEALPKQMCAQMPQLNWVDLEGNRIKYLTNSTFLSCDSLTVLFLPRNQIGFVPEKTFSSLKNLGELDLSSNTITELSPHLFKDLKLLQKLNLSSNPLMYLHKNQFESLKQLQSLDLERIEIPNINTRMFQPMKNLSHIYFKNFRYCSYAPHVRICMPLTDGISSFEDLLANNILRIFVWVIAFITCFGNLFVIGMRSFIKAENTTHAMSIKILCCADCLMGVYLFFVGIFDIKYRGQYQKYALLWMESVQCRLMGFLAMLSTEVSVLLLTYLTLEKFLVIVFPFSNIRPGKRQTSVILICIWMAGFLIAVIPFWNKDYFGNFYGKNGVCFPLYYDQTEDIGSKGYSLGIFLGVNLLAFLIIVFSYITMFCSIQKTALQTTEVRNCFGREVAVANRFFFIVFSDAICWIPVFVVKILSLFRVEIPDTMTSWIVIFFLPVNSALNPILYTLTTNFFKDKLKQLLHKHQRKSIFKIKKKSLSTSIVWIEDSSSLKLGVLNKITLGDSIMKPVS
method_description: INSL3-stimulated cAMP assay in HEK293 stably expressing human RXFP2
settings: read-out: HEK293-human RXFP2 cAMP IC50; INSL3 EC80-stimulated cAMP, stable expression; N = 2
pIC50: −log10 of the molar value.
quantity: pIC50

Worked examples, 6 molecules total:
molecule: 3F1: RXFP2 monoclonal antibody from hybridoma, recombinantly expressed in a rat IgG2b backbone (antibody, V domains shown) VH: QVQLKESGPGLVAPSQSLSITCTVSGFSLTDYGVSWIRQPPGKGLEWLGVIWGGGSTDYNPALKSRLSISKDNSKSQVFLKMNSLQADDTAMYYCVKHEGYYAMDYWGQGTSVTVSS VL: DIQMTQSPASLSVSVGETVTITCRASENIYSNLAWYQQKQGKSPHLLVYAVTNLADGVPSRFSGSGSGTQYSLKINSLQSEDFGSYYCQHFWGTPYTFGGGTKLEIK
pIC50: ~6.23
//
molecule: 1F2: RXFP2 monoclonal antibody from hybridoma, recombinantly expressed in a rat IgG2b backbone (antibody, V domains shown) VH: QVQLKQSGPGLVQPSQSLSITCTVSGFSLTAYGVNWVRQSPGKGLEWLGVIWSGGNTDYNAPFISRLSITKDNSKSQVFFKMNSLEADDTAIYYCARAKGYYAMDYWGQGTSVTVSS VL: DIQMTQSPASLSVSVGESVTITCRATENIYSNLVWYQQKQGQSPQLLVYAVTSLADGVPSRFSGSGSGTQYSLKINSLQSEDFGTYYCQHFWGTPYTFGGGTKLEIK
pIC50: ~6.39
//
molecule: 2D4: RXFP2 monoclonal antibody from hybridoma, recombinantly expressed in a rat IgG2b backbone (antibody, V domains shown) VH: QVQLKESGPGLVAPSQSLSITCTVSGFSLTTYGISWVRQPPGKGLEWLGVIWTGGGTNYNSALKSRLSISKDNSKSQVFLKMNSLQTDDTARYYCARTEGYYVMDYWGQGTSVTVSS VL: DIQMTQSPASLSVSVGETVTITCRASENIYSNLVWYQQKQGKSPQLLVYAATNLADGVPSRFSGSGSGTQYSLKINNLQSEDFGTYYCQHFWGPPWTFGGGTKLEIK
pIC50: < 6.00
//
molecule: 4G6: Human/rat cross-reactive RXFP2 monoclonal antibody, rat IgG2b backbone; binds the LDLa domain (antibody, V domains shown) VH: EVQLQQSGPELVKPGASVKLSCKASGYTFTSYVMHWVKQKPEQGLEWIGYKNPSNDGIKYNEKFKGKATLTSDKSSNIAYMELFSLTSEDSAVYYCARSDFGSVWAMDYWGQGTSVTVSS VL: SIVMTQTPKFLLVSAGDRVTITCKASQSVNDDIVWYQQKPGQSPKLLIYYASNRYTGVPDRFTGSGYGTDFTFTISTVQAGDLAVYFCQQDYSSPFTFGSGTKLEIK
pIC50: 7.81
//
molecule: 4F6: Human/rat cross-reactive RXFP2 monoclonal antibody, rat IgG2b backbone; binds the LDLa domain (antibody, V domains shown) VH: EVQLQQSGPELVKPGASVKMSCKASGYTFTNYVLHWVKQKPGQGLEWIGYINPYNDGSKYNEKFKGRATLTSDKSSSTAYMELSSLTSEDSAVYYCARGGWLLDYFDYWGQGTTLTVSS VL: DVLMTQSPLSLPVSLGEQASISCRSSQSIVHSDGDTYLEWYLQKPGQSPNLLIYKVSNRFSGVPDRFSGSGSGTDFTLKISRVEAEDLGVYYCFQGSHVPPTFGGGTKLEIK
pIC50: ~6.45
//
molecule: 4B8: RXFP2 monoclonal antibody from hybridoma, recombinantly expressed in a rat IgG2b backbone (antibody, V domains shown) VH: QVQLKQSGPGLVQPSQSLSITCTVSGFSLSRYGVHWVRQSPGKGLEWLGVIWSGGSTEYNAVFKSRLSISKDNSKSQVFFKMNSLQANDTAIYYCVRADGYYAMEYWGQGTSVTVSS VL: DIQMTQSPASLSVSVGETVTITCRASENIYSNLAWYQQKQGKSPQLLVYAVTNLADGVPSRFSGSGSGTQYSLKINSLQSEDFGNYYCQHFWGTPYTFGGGTKLEIK
pIC50: ~6.94

Now examine the next entry.
Exercise: Return pIC50 (reported value) for this molecule: 4H1: RXFP2 monoclonal antibody from hybridoma, recombinantly expressed in a rat IgG2b backbone (antibody, V domains shown) VH: QIQLVQSGPELKKPGETVKISCKTSGYTFTKYPMHWVKQAPGEGLKWMGWINTYSGLPTFADDFKGRFAFSLETSANTADLQINNLKNEDMATYFCAREGKKLSGYFDYWGQGTTLTVSS VL: DIKMTQSPSSMYASLGERVTITCKASQDINSYLTWFQQKPGQSPKTLIYRANRFVDGVPSRFSGSGSGQDYSLTITSLEYEDMGIYYCLQYDEFPYTFGGGTQLEIK
Key: ~6.66
